B1: COUP transcription factor 1, residues 83 to 159; numbered along this chain, P10589 (parent)
chain: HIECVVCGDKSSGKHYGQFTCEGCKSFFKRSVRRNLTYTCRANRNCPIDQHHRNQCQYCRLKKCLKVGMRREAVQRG

# Variants of: B1
# method_notes: abundance fitness (aPCA) (normalised: wild type 0, dead -1); higher = more abundant; growth selection in yeast, the domain comes from the species named
# experimental_parameters: Homo sapiens
Response field class: enum, chosen by comparing abundance fitness against low end (below -0.3), middle (-0.3 to below -0.007), high end (-0.007 or more)

// known answers, use as guide
[[record]]
seq_string = "HIECVVCGDKSSGKHYGQFTCEGCKSFFKRSVRRNLTYTCRANRNCPIDQHHRNQCQYCFLKKCLKVGMRREAVQRG"
class_name = "high end"

[[record]]
seq_string = "HIECVVCGDKSSGKHYGQFTCEGCKSFFKRSVRRNLTYTCRANRGCPIDQHHRNQCQYCRLKKCLKVGMRREAVQRG"
class_name = "high end"

[[record]]
seq_string = "HIECVVCGDKSSGKHYGQFTCEGCKSFFKRSVRRNLTYTCRANRNCPIDQHHRNQCQYCRLKKCLKVGMRREAVQRK"
class_name = "high end"

[[record]]
seq_string = "HIECVVCGDKSSGKHYGQFTCEGCKSFFKRSVRRNLTYTCRANRNCPRDQHHRNQCQYCRLKKCLKVGMRREAVQRG"
class_name = "low end"

[[record]]
seq_string = "HIECVVCGDKSSGKHYGQFFCEGCKSFFKRSVRRNLTYTCRANRNCPIDQHHRNQCQYCRLKKCLKVGMRREAVQRG"
class_name = "middle"


## Input Bin this entry: `HIECVVCGDKSSGKHYGQFTCEGCKSFFKRSVRRNLTYTCRANRNCPIDQHHRNQCQYCRLKKCLKVKMRREAVQRG`
## Output low end

## Input Bin this entry: `HIECVVCGDKSSGKHYGQFTCEGCKSFFKRSVRRNLTYTCRANRNCPIVQHHRNQCQYCRLKKCLKVGMRREAVQRG`
## Output middle

## Input Bin this entry: `HIECVVCGDKSSGKHYGQFTCEGCKSFFKRSVRRNLTYTCRANRNCPIDQHHRNQCQYCRLKKCLKVWMRREAVQRG`
## Output low end

## Input Bin this entry: `HIECVVCGDKSSGKHYGQFTCEGCKSFFKRSVRRNLTYTCRANRNCPIDQHHRNQCQYCRLKKCLKRGMRREAVQRG`
## Output middle

## Input Bin this entry: `HIECVVCGDKSSGKHYGQFTCEGCKSFFKRSVRRNLTYTCRRNRNCPIDQHHRNQCQYCRLKKCLKVGMRREAVQRG`
## Output middle

## Input Bin this entry: `HIECVVCGDKSSGKHYLQFTCEGCKSFFKRSVRRNLTYTCRANRNCPIDQHHRNQCQYCRLKKCLKVGMRREAVQRG`
## Output low end

## Input Bin this entry: `HIECVVCGDKSSGKHYGQFTCEGCKSFFKRSVRRNLTYTCRANRNCPIDQHHRNQCQYCRLKKCLKCGMRREAVQRG`
## Output middle

## Input Bin this entry: `HIECVVCGDKSSGKHYGQFTCEGCKSFFKRSVIRNLTYTCRANRNCPIDQHHRNQCQYCRLKKCLKVGMRREAVQRG`
## Output high end

## Input Bin this entry: `HIECVVCGDKSSGKHYGQFTCEGCKSFFIRSVRRNLTYTCRANRNCPIDQHHRNQCQYCRLKKCLKVGMRREAVQRG`
## Output middle

## Input Bin this entry: `HIECVVCGDKSSGKHYGPFTCEGCKSFFKRSVRRNLTYTCRANRNCPIDQHHRNQCQYCRLKKCLKVGMRREAVQRG`
## Output high end

## Input Bin this entry: `HIECVVCGDKSSGKHYGQFTCEGCKSFFKRSVRRNLTYTCRANRNCPIDQHHRCQCQYCRLKKCLKVGMRREAVQRG`
## Output low end

## Input Bin this entry: `HIECVVCGDKSSGKHYGQFTCEGCKSFFKRSVRRNLTYTCRANRNCPIDQHHRNQCQYCRLKKCLAVGMRREAVQRG`
## Output high end

## Input Bin this entry: `HIECVVCGDKSSGKHYGQFTCEGCKSFFKRSVRRNLTYTCRANRNCPIDQHHRNQCQYCRLKKCLNVGMRREAVQRG`
## Output high end

## Input Bin this entry: `HIECVVCGDKSSGKHYGQFTCEGCKSFPKRSVRRNLTYTCRANRNCPIDQHHRNQCQYCRLKKCLKVGMRREAVQRG`
## Output low end

## Input Bin this entry: `HIECVVCGDKSSGKHYGQFTCEGCKSFFKRSVRRNLTYTCRANRNCPIDQHHRNQCQYCRLKDCLKVGMRREAVQRG`
## Output low end

## Input Bin this entry: `HIECVVCGDKSSGKHYGQFTCEGCKSFFKRSVRRNLTYTCRANRNCPIDQHHRNQCQYCRLKKCLKVGMKREAVQRG`
## Output high end

## Input Bin this entry: `HIECVVCGDKSSGKHYGQFTCEGCPSFFKRSVRRNLTYTCRANRNCPIDQHHRNQCQYCRLKKCLKVGMRREAVQRG`
## Output low end

## Input Bin this entry: `HIECVVCGDKSSGKHYGQFTCEGCKSFFKRSVRRNLTYTCRANRNCPIDQHHRNQCQYCRLRKCLKVGMRREAVQRG`
## Output middle

## Input Bin this entry: `HIECVVCGDKSSGKHYGQFTCEGCKSFFKRKVRRNLTYTCRANRNCPIDQHHRNQCQYCRLKKCLKVGMRREAVQRG`
## Output low end

## Input Bin this entry: `HIECVVCGDKSSGKHYGQFTCEGCKSFFKRSVRRNLTYTCRANRNCPIDQHHRNQCQYCRLKKCLKSGMRREAVQRG`
## Output middle

## Input Bin this entry: `HIECVVCGDKSSGKHYGQFTCEGCKSFFKRSVRRNLTYTCRANRNCPIDQHHRNQCQYCRLKKCLKVGMRREAVQRF`
## Output low end

## Input Bin this entry: `HIECVVCGDKSSGKHYGQFLCEGCKSFFKRSVRRNLTYTCRANRNCPIDQHHRNQCQYCRLKKCLKVGMRREAVQRG`
## Output middle

## Input Bin this entry: `HIECVVCGDKSSGKHYGQFTCEGCKSFFKRSVRRNLTYTCRANRNCPIDQHHRNQCQYCRLKKCLKVGMRREAVQRD`
## Output high end

## Input Bin this entry: `HIECVVCGDKSSGKHYGQFTCEGCKSFFKRSVRRNLAYTCRANRNCPIDQHHRNQCQYCRLKKCLKVGMRREAVQRG`
## Output high end
